Target: cysteines in MDA-MB-231 and Ramos cells (Homo sapiens, UniProt Q9NS86)
Sequence (Q9NS86 1-450): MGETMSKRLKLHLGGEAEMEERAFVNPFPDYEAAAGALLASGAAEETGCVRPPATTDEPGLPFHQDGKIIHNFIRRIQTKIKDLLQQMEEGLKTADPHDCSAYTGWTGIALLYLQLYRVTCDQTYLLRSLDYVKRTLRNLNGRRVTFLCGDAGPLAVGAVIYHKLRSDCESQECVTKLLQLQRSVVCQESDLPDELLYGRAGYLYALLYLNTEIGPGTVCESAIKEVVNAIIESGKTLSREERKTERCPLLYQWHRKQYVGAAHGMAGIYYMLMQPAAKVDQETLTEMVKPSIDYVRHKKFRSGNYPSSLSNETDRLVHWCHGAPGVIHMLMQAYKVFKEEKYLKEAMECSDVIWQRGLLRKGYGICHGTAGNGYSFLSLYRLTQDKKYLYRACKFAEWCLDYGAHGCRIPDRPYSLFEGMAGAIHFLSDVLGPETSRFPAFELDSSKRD
Assay: Competitive isoTOP-ABPP in situ (fragment-treated cells)
Format: cell-based
Conditions: 200 μM, insitu, 231
The following molecules are shown together with reported isoTOP-ABPP ratio Q9NS86_C187 values.

> print(dat)
                                   molecule                              study.target  observed.value
1  O=C(CCl)NC(=O)NC12CC3CC(CC(C3)C1)C2 [compound 12]  cysteines in MDA-MB-231 and Ramos cells (Homo sapiens, UniProt Q9NS86)             2.0
2  C=CC(=O)Nc1cc(F)c(N2CCN(C(=O)OC(C)(C)C)CC2)c(F)c1 [compound 38]  cysteines in MDA-MB-231 and Ramos cells (Homo sapiens, UniProt Q9NS86)             2.0
3  O=C(CCl)NCCc1c[nH]c2ccccc12 [compound 13]  cysteines in MDA-MB-231 and Ramos cells (Homo sapiens, UniProt Q9NS86)             1.0

Exercise: Identify isoTOP-ABPP ratio Q9NS86_C187 associated with the molecule O=C(CCl)NC12CC3CC(CC(C3)C1)C2 [compound 21]
Key: 0.9

Exercise: Give a short answer stating reported isoTOP-ABPP ratio Q9NS86_C187 for O=C(CCl)Nc1cccc2ncccc12 [compound 51] .
Key: 2.0
